- Measured on: Mitogen-activated protein kinase 3 (Homo sapiens, UniProt P27361)
- Sequence (P27361 whole entry): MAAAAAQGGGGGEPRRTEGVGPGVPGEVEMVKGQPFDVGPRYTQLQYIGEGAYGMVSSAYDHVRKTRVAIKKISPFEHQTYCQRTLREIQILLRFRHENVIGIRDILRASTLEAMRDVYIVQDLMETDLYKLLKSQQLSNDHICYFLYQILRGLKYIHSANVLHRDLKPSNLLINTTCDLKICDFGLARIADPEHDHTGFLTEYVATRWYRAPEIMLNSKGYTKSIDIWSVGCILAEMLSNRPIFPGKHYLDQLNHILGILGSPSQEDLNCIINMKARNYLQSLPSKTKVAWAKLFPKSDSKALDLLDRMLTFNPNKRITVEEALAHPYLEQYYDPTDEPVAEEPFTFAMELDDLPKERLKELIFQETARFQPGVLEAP
- Test details: Inhibition of ERK1

Compound structure	Measurement unit	IC50
COc1ccc2c(Oc3ccc(NC(=O)c4c(C)n(CC(C)(C)O)n(-c5ccccc5)c4=O)nc3)ccnc2c1	µM	100
COc1cc2nccc(Oc3ccc(NC(=O)c4c(C)n(C)n(-c5ccccc5)c4=O)cc3F)c2cc1OC	µM	25

====

- Measured on: Angiopoietin-1 receptor (Homo sapiens, UniProt Q02763)

Compound structure	IC50
COc1cc2nccc(Oc3ccc(NC(=O)c4c(C)n(C)n(-c5ccccc5)c4=O)cc3F)c2cc1OC	100 nM

====

- Measured on: Macrophage-stimulating protein receptor (Homo sapiens)
- Sequence (Q04912 25-304 limits assumed): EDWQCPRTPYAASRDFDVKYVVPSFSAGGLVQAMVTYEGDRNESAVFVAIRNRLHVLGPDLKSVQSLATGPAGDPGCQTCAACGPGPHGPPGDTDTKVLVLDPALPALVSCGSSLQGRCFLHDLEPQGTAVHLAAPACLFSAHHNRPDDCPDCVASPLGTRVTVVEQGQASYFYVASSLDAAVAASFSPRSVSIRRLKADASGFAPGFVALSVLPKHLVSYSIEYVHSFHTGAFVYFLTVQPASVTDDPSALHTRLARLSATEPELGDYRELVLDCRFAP
- Sequence (Q04912 310-1400 limits assumed): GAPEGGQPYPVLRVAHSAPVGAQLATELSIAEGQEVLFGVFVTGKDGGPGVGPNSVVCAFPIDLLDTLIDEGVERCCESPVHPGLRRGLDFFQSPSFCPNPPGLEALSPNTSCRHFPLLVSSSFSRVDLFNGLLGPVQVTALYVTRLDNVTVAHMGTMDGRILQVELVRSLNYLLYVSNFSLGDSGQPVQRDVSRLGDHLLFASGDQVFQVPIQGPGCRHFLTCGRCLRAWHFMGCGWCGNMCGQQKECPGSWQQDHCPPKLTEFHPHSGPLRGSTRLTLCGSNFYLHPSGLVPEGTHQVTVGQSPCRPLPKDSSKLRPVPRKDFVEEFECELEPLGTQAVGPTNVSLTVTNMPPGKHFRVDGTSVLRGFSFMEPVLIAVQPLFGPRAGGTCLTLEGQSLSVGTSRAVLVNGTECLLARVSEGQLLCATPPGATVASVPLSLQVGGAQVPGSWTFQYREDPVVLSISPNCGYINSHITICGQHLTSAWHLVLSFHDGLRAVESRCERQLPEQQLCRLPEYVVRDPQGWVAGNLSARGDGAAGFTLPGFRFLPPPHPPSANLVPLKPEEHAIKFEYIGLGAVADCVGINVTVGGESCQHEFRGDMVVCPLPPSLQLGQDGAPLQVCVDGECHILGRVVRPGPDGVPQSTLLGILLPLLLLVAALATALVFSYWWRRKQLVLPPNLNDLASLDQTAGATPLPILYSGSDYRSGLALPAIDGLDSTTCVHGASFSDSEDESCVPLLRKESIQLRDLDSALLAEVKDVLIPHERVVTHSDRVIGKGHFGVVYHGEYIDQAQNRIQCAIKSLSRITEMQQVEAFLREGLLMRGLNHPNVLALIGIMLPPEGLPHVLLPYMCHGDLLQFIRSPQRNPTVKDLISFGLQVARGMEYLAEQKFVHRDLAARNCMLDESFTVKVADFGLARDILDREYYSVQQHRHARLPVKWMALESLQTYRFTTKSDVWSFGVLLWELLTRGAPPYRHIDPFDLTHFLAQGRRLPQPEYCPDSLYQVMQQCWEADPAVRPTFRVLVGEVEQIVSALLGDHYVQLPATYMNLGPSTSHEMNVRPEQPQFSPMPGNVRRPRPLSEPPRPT
pIC50: −log10 of the molar value.
Measure: pIC50

Compound structure	Measure	Assay result
COc1ccc2c(Oc3ccc(NC(=O)c4c(C)n(CC(C)(C)O)n(-c5ccccc5)c4=O)nc3)ccnc2c1	pIC50	8.00

====

- Measured on: Vascular endothelial growth factor receptor 2 (Homo sapiens)
- Sequence (P35968 whole entry): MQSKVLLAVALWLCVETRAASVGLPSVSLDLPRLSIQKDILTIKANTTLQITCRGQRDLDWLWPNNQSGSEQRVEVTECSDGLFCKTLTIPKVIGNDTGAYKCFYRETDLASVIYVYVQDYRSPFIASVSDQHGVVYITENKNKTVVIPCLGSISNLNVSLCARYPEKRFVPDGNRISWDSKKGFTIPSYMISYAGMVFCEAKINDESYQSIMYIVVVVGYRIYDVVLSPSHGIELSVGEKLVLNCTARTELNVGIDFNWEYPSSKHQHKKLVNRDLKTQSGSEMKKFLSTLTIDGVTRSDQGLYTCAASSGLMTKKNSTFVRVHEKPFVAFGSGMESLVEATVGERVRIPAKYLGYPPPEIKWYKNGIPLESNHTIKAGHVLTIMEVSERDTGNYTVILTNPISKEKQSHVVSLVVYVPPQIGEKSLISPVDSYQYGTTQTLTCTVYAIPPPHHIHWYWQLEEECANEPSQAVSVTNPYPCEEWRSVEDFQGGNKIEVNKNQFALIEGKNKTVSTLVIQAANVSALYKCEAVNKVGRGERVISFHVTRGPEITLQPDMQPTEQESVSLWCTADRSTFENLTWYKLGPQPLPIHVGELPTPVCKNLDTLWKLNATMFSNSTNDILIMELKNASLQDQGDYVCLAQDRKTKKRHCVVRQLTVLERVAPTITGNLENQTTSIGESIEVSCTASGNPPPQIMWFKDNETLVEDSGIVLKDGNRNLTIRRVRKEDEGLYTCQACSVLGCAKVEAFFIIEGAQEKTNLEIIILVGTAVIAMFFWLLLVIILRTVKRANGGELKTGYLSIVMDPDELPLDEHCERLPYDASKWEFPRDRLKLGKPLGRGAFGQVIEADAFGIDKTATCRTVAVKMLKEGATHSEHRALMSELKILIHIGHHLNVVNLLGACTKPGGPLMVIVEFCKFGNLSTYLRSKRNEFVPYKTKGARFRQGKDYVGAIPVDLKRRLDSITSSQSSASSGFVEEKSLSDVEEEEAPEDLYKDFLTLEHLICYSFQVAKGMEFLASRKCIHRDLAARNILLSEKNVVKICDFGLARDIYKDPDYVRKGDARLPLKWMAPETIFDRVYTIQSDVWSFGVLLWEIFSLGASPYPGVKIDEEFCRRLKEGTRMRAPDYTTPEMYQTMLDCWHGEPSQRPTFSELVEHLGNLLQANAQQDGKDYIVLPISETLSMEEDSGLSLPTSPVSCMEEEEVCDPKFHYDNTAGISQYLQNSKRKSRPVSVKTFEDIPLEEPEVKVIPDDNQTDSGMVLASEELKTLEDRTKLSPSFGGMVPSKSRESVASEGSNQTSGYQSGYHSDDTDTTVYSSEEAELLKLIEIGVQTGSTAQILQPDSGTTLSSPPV
Decide using Ki alone. Strictly below 500 nM: true (1). Equal to or above 500 nM: false (0).

Compound structure	Class
COc1cc2nccc(Oc3ccc(NC(=O)c4c(C)n(C)n(-c5ccccc5)c4=O)c(Cl)c3)c2cc1OC	true (1)
COc1cc2nccc(Oc3ccc(NC(=O)c4c(C)n(C)n(-c5ccccc5)c4=O)cc3F)c2cc1Br	true (1)
COc1ccc2c(Oc3ccc(NC(=O)c4c(C5CCOCC5)n(C)n(-c5ccccc5)c4=O)nc3)ccnc2c1	false (0)
COc1ccc2c(Oc3ccc(NC(=O)c4c(CN)n(C)n(-c5ccccc5)c4=O)cc3F)ccnc2c1	false (0)

====

- Measured on: Mitogen-activated protein kinase 9 (Homo sapiens)
- Sequence (P45984 whole entry): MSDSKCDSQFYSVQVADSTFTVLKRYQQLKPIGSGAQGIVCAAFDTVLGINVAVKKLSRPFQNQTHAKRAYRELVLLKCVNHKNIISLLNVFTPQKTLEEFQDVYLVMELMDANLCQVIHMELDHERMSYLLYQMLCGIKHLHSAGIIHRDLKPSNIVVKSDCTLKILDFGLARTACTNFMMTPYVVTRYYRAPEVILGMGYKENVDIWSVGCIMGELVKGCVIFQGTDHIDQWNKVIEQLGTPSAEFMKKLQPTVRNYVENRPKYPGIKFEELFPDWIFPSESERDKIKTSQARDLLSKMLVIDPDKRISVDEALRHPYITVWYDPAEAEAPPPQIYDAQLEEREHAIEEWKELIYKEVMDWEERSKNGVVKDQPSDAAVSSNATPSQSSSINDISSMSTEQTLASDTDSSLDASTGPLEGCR
- Test details: Inhibition of JNK2
pIC50: −log10 of the molar value.

Compound structure	pIC50
COc1ccc2c(Oc3ccc(NC(=O)c4c(C)n(CC(C)(C)O)n(-c5ccccc5)c4=O)nc3)ccnc2c1	4.00

====

Quick record: IC50, UniProt:P23458.
Measure: IC50 (µM)

Compound structure	Measure	Assay result
COc1cc2nccc(Oc3ccc(NC(=O)c4c(C)n(C)n(-c5ccccc5)c4=O)cc3F)c2cc1OC	IC50	10
COc1ccc2c(Oc3ccc(NC(=O)c4c(C)n(CC(C)(C)O)n(-c5ccccc5)c4=O)nc3)ccnc2c1	IC50	25

====

Readings of Ki for the listed compounds
- Measured on: Insulin-like growth factor 1 receptor (Homo sapiens, UniProt P08069)
- Sequence (P08069 31-736 limits assumed): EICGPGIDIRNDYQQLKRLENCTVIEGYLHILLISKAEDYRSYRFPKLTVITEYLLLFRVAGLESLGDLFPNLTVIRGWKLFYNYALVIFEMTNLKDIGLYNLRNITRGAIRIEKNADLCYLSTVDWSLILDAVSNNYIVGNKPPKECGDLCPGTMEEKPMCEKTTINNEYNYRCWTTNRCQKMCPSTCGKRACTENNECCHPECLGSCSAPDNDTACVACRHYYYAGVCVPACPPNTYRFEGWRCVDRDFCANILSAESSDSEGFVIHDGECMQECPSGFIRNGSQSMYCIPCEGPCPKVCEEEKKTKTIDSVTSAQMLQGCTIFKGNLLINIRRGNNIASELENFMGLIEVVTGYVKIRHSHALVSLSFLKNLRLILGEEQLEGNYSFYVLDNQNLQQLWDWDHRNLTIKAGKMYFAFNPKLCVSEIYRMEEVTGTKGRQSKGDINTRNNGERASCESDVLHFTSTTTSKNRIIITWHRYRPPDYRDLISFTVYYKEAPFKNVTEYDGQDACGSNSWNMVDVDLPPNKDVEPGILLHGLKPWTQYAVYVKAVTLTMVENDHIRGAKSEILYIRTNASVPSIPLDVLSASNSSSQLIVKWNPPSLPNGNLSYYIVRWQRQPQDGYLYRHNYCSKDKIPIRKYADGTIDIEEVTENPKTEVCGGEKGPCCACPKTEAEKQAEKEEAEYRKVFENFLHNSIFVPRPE
- Sequence (P08069 741-1367 limits assumed): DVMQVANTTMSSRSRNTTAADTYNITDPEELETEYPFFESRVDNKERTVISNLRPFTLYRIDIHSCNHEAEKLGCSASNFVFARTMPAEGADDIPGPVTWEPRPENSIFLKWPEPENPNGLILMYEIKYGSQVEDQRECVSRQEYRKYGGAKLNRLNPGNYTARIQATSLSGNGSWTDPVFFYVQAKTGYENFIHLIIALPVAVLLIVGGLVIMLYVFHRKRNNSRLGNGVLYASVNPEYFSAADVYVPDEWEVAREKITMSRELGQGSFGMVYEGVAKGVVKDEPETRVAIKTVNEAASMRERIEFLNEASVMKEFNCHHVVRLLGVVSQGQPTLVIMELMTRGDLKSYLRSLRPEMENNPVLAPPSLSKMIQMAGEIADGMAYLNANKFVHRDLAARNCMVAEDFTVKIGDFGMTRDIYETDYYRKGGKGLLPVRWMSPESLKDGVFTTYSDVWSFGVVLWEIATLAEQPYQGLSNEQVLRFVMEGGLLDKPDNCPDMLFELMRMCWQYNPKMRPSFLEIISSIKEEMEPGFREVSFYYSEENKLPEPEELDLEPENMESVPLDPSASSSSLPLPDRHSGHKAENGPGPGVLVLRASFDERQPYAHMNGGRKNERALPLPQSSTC

Compound	Ki (nM)
COc1ccc2c(Oc3ccc(NC(=O)c4c(CN5CCCC5)n(C)n(-c5ccccc5)c4=O)cc3F)ccnc2c1	1800
COc1ccc2c(Oc3ccc(NC(=O)c4c(C)n(CC5CNC(=O)O5)n(-c5ccccc5)c4=O)cc3F)ccnc2c1 (stereo unspecified)	1660
COc1ccc2c(Oc3ccc(NC(=O)c4c(C)n(CC(C)O)n(-c5ccccc5)c4=O)cc3F)ccnc2c1 (racemic)	1330
COc1ccc2c(Oc3ccc(NC(=O)c4c(C)n(C)n(-c5ccccc5)c4=O)c(OC)c3)ccnc2c1	93.6
COc1ccc2c(Oc3cnc(NC(=O)c4c(C)n(C)n(-c5ccccc5)c4=O)nc3)ccnc2c1	217
COc1ccc2c(Oc3ccc(NC(=O)c4c(C)n(C)n(-c5ccccc5)c4=O)nc3)ccnc2c1	618
COc1ccc2c(Oc3ccc(NC(=O)c4c(-c5cnccn5)n(C)n(-c5ccccc5)c4=O)nc3)ccnc2c1	87.7
COc1ccc2c(Oc3ccc(NC(=O)c4c(C5CCOCC5)n(C)n(-c5ccccc5)c4=O)cc3F)ccnc2c1	144
COc1cc2nccc(Oc3ccc(NC(=O)c4c(C)n(C)n(-c5ccccc5)c4=O)cn3)c2cc1OC	1570
COc1ccc2c(Oc3ccc(NC(=O)c4c(C5CCOCC5)n(C)n(-c5ccccc5)c4=O)nc3)ccnc2c1	42.7
CCc1cc2c(Oc3ccc(NC(=O)c4c(C)n(C)n(-c5ccccc5)c4=O)cc3F)ccnc2cc1OC	70.2
CCCn1c(C)c(C(=O)Nc2ccc(Oc3ccnc4cc(OC)ccc34)cn2)c(=O)n1-c1ccccc1	730
COc1ccc2c(Oc3ccc(NC(=O)c4c(-c5ccncc5)n(C)n(-c5ccccc5)c4=O)nc3)ccnc2c1	35.9
CCCn1c(C)c(C(=O)Nc2ccc(Oc3ccnc4cc(OC)ccc34)c(F)c2)c(=O)n1-c1ccccc1	419
COc1ccc2c(Oc3ccc(NC(=O)c4c(CN)n(C)n(-c5ccccc5)c4=O)cc3F)ccnc2c1	928
C=C(C)Cn1c(C)c(C(=O)Nc2ccc(Oc3ccnc4cc(OC)ccc34)c(F)c2)c(=O)n1-c1ccccc1	249

====

- Measured on: Mast/stem cell growth factor receptor Kit (Homo sapiens)

Compound structure	Measurement unit	IC50
COc1ccc2c(Oc3ccc(NC(=O)c4c(C)n(CC(C)(C)O)n(-c5ccccc5)c4=O)nc3)ccnc2c1	µM	10

====

- Measured on: Insulin-like growth factor 1 receptor (Homo sapiens, UniProt P08069)
pKi: −log10 of the molar value.
Items are presented alongside their recorded pKi.

Compound	pKi
CCn1c(C)c(C(=O)Nc2ccc(Oc3ccnc4cc(OC)ccc34)c(F)c2)c(=O)n1-c1ccccc1	6.25
COc1ccc2c(Oc3ccc(NC(=O)c4c([C@@H]5CCCN5)n(C)n(-c5ccccc5)c4=O)nc3)ccnc2c1	6.02
COc1cc2nccc(Oc3ccc(NC(=O)c4c(C)n(C)n(-c5ccccc5)c4=O)cc3F)c2cc1Br	6.83
COc1ccc2c(Oc3ccc(NC(=O)c4c(C)n(CCN)n(-c5ccccc5)c4=O)cc3F)ccnc2c1	6.06
COc1ccc2c(Oc3ccc(NC(=O)c4c(C)n(CC(O)C(C)C)n(-c5ccccc5)c4=O)cc3F)ccnc2c1 (stereo not drawn)	6.20
COc1ccc2c(Oc3ccc(NC(=O)c4c(-c5ccccn5)n(C)n(-c5ccccc5)c4=O)nc3)ccnc2c1	7.73
CCn1c(C)c(C(=O)Nc2ccc(Oc3ccnc4cc(OC)ccc34)cn2)c(=O)n1-c1ccccc1	6.15
COc1ccc2c(Oc3ccc(NC(=O)c4c([C@@H]5CCCN5)n(C)n(-c5ccccc5)c4=O)cc3F)ccnc2c1	6.17

====

- Measured on: Serine/threonine-protein kinase pim-1 (Homo sapiens, UniProt P11309)

Compound structure	Measured on	Measurement unit	IC50
COc1ccc2c(Oc3ccc(NC(=O)c4c(C)n(CC(C)(C)O)n(-c5ccccc5)c4=O)nc3)ccnc2c1	Serine/threonine-protein kinase pim-1 (Homo sapiens, UniProt P11309)	µM	25

====

- Measured on: RAC-alpha serine/threonine-protein kinase (Homo sapiens, UniProt P31749)

Compound structure	Measurement unit	IC50
COc1cc2nccc(Oc3ccc(NC(=O)c4c(C)n(C)n(-c5ccccc5)c4=O)cc3F)c2cc1OC	µM	10
